# Test system: Aspergillus fumigatus
# test details: Antimicrobial activity against Aspergillus fumigatus after 72 hrs by microbroth dilution method
# Type: functional
reported endpoint: MIC

Examples with their reported MIC follow.
{"columns": ["compound structure string", "MIC"],
 "data": [
  ["CC(C)CCO[C@@H]1C=CC(=O)[C@@H](Cn2ccnn2)O1", "> 50 µg/mL"],
  ["CC(C)CCO[C@@H]1C=CC(=O)[C@@H](Cn2cc(CCCN3C(=O)c4ccccc4C3=O)nn2)O1", "> 50 µg/mL"],
  ["CCCCCCCCc1cn(C[C@H]2O[C@H](OCCCC)C=CC2=O)nn1", "> 50 µg/mL"],
  ["OC(Cn1cncn1)(Cn1cncn1)c1ccc(F)cc1F", "> 32 µg/mL"]
]}

Provide Aspergillus fumigatus MIC reading for Nc1nc(=O)[nH]cc1F .
> 32 µg/mL

Provide Aspergillus fumigatus MIC reading for CCCCCCCCc1cn(C[C@H]2O[C@H](OCCC(C)C)C=C[C@@H]2O)nn1 .
> 50 µg/mL

Provide Aspergillus fumigatus MIC reading for CC(C)CO[C@@H]1C=CC(=O)[C@@H](Cn2cc(CCCCl)nn2)O1 .
> 50 µg/mL

====

# System: Staphylococcus aureus
# test details: Antimicrobial activity against vancomycin-resistant Staphylococcus aureus after 24 hrs by microbroth dilution method
# Assay type: functional
Please note: MIC exactly at 10 µg/mL is NOT MET. Only values below 10 µg/mL get MET.

Use the examples below as a reference point.
{"columns": ["molecule", "classification"],
 "data": [
  ["CCCCCc1cn(C[C@H]2O[C@H](OCCC(C)C)C=CC2=O)nn1", "MET"],
  ["O=C(O)c1cn(C2CC2)c2cc(N3CCNCC3)c(F)cc2c1=O [CIPROFLOXACIN]", "MET"],
  ["CC(C)CCO[C@@H]1C=CC(=O)[C@@H](Cn2cc(CCn3cc(-c4ccccc4)nn3)nn2)O1", "NOT MET"],
  ["CN[C@@H]1[C@@H](O)[C@@H](O[C@@H]2[C@@H](O)[C@H](O[C@H]3O[C@H]([C@@H](C)NC)CC[C@H]3N)[C@@H](N)C[C@H]2N)OC[C@]1(C)O [GENTAMICIN C1]", "MET"],
  ["CC(C)CCO[C@@H]1C=CC(=O)[C@@H](Cn2cc(CCCN3C(=O)c4ccccc4C3=O)nn2)O1", "NOT MET"],
  ["CC(C)CCO[C@@H]1C=CC(=O)[C@@H](Cn2cc(CCCCl)nn2)O1", "MET"],
  ["CCCCCCCCc1cn(C[C@H]2O[C@H](OCCC(C)C)C=C[C@@H]2O)nn1", "NOT MET"]
]}

Dear colleague, could you confirm whether MIC of CCCCCCCCc1cnnn1C[C@H]1O[C@H](OCCC(C)C)C=CC1=O falls below 10 µg/mL? Thanks.
NOT MET
